Record form. Attribute: polymerase ribozyme fitness (log ratio). Fill in for each entry.
B1: TPR 5TU (parent)
chain: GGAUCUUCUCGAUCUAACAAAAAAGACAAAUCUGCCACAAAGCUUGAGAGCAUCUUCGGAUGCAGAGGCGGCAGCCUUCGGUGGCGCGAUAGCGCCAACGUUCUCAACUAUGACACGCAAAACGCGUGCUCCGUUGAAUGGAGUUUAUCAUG

Variants of: B1
Protocol summary: polymerase ribozyme fitness, log enrichment relative to wild type (log ratio); higher = more active; in vitro selection for triplet polymerase activity
Variants at the floor of the assay were thinned out.
Would you mind answering with just the numeric figure?

Enquiry: # query: polymerase ribozyme fitness (log ratio) of entry C38U G84U
Return: -2.42

Enquiry: # repeat for A73G U145G
Return: -0.0134

Enquiry: # repeat for A20G U31G G86A
Return: -1.52

Enquiry: # repeat for C96G G143C
Return: -2.86

Enquiry: # repeat for G84A A98C C105G U148C
Return: -3.35

Enquiry: # repeat for A3C C93A A98U
Return: -1.79

Enquiry: # repeat for G94A C116G C123G
Return: 0.258

Enquiry: # repeat for A47C C129G
Return: -4.19

Enquiry: # repeat for U7A A23C C36A U56A A91U C132G
Return: -3.78

Reference source: the RNAGym collection of RNA variant scans (doi:10.1073/pnas.2313332121)
